Reference source for all entries: ChEMBL document CHEMBL4145478

# EXPERIMENT: Selectivity ratio of IC50 for human K562/A02 cells to IC50 for human K562 cells
# Type: ADME
# TEST_CONTEXT: K562/A02 cells and K562 cells, read-out: Ratio IC50
Where a name gives a salt, the structure may show the parent alone.
QUANTITY: selectivity ratio
Answers are plain numbers.

**Query** For the compound COc1cccc2c1C(=O)c1c(O)c3c(c(O)c1C2=O)C[C@@](O)(C(=O)CO)C[C@@H]3O[C@H]1C[C@H](N)[C@H](O)[C@H](C)O1 [DOXORUBICIN HYDROCHLORIDE] , give its reported selectivity ratio.
**Result** 64

* * *

# System: MDA-MB-231
# EXPERIMENT: Antiproliferative activity against human MDA-MB-231 cells after 72 hrs by MTT assay
# Type: cell-based
# TEST_CONTEXT: MDA-MB-231, 72 h
Give pIC50 for every item shown.
Answers are plain numbers, as −log10 of the molar value.

COc1cc(C(=O)NCCN2Cc3cc(OC)c4c(c3-c3c(cc(OC)c5c3OCO5)C2)OCO4)cc(OC)c1OC: 4.07

Then this compound:
**Query** // output pIC50; input "COc1ccc(NC(=O)CCN2Cc3cc(OC)c4c(c3-c3c(cc(OC)c5c3OCO5)C2)OCO4)cc1OC" ; system MDA-MB-231
**Result** 4.09

* * *

# System: K562/A02
# EXPERIMENT: Cytotoxicity against human K562/A02 cells assessed as reduction in cell viability after 72 hrs by MTS assay
# Assay type: cell-based
# TEST_CONTEXT: K562/A02, 72 h
Where a name gives a salt, the structure may show the parent alone.
QUANTITY: IC50 (µM)
One number for each entry, in µM.

Some solved entries appear below for comparison.
COc1cc2c(c3c1OCO3)-c1c(cc(OC)c3c1OCO3)CN(CCNC(=O)c1ccc(C)cc1)C2: 28.2
COc1cc2c(c3c1OCO3)-c1c(cc(OC)c3c1OCO3)CN(CCCCCCNC(=O)c1cccs1)C2: 29
COc1ccccc1C(=O)NCCN1Cc2cc(OC)c3c(c2-c2c(cc(OC)c4c2OCO4)C1)OCO3: 63.9
COc1ccc(C(=O)NCCN2Cc3cc(OC)c4c(c3-c3c(cc(OC)c5c3OCO5)C2)OCO4)cc1OC: 65.8
COc1ccc(NC(=O)CCN2Cc3cc(OC)c4c(c3-c3c(cc(OC)c5c3OCO5)C2)OCO4)cc1OC: 69.9

For every item in the list below, what is its measured IC50?
1. COc1cc(C(=O)NCCN2Cc3cc(OC)c4c(c3-c3c(cc(OC)c5c3OCO5)C2)OCO4)cc(OC)c1OC
2. COc1cc(C(=O)NCCCCCCN2Cc3cc(OC)c4c(c3-c3c(cc(OC)c5c3OCO5)C2)OCO4)cc(OC)c1OC
3. COc1ccc(C(=O)NCCCCCCN2Cc3cc(OC)c4c(c3-c3c(cc(OC)c5c3OCO5)C2)OCO4)cc1OC
4. COc1ccc(NC(=O)CCN2Cc3cc(OC)c4c(c3-c3c(cc(OC)c5c3OCO5)C2)OCO4)cc1
5. COc1cc2c(c3c1OCO3)-c1c(cc(OC)c3c1OCO3)CN(CCCCCCNC(=O)c1ccc(Cl)cc1)C2
6. COc1ccccc1C(=O)NCCCCCCN1Cc2cc(OC)c3c(c2-c2c(cc(OC)c4c2OCO4)C1)OCO3
7. COc1cccc2c1C(=O)c1c(O)c3c(c(O)c1C2=O)C[C@@](O)(C(=O)CO)C[C@@H]3O[C@H]1C[C@H](N)[C@H](O)[C@H](C)O1 [DOXORUBICIN HYDROCHLORIDE]
8. COc1cc2c(c3c1OCO3)-c1c(cc(OC)c3c1OCO3)CN(CCCCCCNC(=O)c1ccc(Cl)c(Cl)c1)C2

**Result**
47.2
31.8
28.3
43.2
18.4
26.2
25
11.5

For every item in the list below, what is its measured IC50?
1. COc1cc2c(c3c1OCO3)-c1c(cc(OC)c3c1OCO3)CN(CCCCCCNC(=O)c1ccc(Cl)cc1Cl)C2
2. COc1cc2c(c3c1OCO3)-c1c(cc(OC)c3c1OCO3)CN(CCCCCCNC(=O)c1ccc(C)cc1)C2
3. COc1ccccc1NC(=O)CCN1Cc2cc(OC)c3c(c2-c2c(cc(OC)c4c2OCO4)C1)OCO3

**Result**
1. 34.5
2. 23.3
3. 72.9
